Values compiled from PubChem BioAssay AID1224864.

Exercise: state measured total CFTR intensity for each of the compounds provided.
molecular target: Cystic fibrosis transmembrane conductance regulator (Homo sapiens) (UniProt P13569); assay: F508del-CFTR plasma membrane relocalization enhancers – imaging, HeLa, high-content microscopy, immunofluorescence, primary screen (AID 1224864); conditions: PM immunofluorescence imaging, 24 h, at 10 µM, stronger effect = higher value, relative to vehicle wells set at 100; measured here: total cellular F508del-CFTR signal;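 further: HeLa cells stably expressing F508del-CFTR stained with 3G11 antibody against NBD1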
Sequence (P13569 whole entry, looked up, stated change not applied): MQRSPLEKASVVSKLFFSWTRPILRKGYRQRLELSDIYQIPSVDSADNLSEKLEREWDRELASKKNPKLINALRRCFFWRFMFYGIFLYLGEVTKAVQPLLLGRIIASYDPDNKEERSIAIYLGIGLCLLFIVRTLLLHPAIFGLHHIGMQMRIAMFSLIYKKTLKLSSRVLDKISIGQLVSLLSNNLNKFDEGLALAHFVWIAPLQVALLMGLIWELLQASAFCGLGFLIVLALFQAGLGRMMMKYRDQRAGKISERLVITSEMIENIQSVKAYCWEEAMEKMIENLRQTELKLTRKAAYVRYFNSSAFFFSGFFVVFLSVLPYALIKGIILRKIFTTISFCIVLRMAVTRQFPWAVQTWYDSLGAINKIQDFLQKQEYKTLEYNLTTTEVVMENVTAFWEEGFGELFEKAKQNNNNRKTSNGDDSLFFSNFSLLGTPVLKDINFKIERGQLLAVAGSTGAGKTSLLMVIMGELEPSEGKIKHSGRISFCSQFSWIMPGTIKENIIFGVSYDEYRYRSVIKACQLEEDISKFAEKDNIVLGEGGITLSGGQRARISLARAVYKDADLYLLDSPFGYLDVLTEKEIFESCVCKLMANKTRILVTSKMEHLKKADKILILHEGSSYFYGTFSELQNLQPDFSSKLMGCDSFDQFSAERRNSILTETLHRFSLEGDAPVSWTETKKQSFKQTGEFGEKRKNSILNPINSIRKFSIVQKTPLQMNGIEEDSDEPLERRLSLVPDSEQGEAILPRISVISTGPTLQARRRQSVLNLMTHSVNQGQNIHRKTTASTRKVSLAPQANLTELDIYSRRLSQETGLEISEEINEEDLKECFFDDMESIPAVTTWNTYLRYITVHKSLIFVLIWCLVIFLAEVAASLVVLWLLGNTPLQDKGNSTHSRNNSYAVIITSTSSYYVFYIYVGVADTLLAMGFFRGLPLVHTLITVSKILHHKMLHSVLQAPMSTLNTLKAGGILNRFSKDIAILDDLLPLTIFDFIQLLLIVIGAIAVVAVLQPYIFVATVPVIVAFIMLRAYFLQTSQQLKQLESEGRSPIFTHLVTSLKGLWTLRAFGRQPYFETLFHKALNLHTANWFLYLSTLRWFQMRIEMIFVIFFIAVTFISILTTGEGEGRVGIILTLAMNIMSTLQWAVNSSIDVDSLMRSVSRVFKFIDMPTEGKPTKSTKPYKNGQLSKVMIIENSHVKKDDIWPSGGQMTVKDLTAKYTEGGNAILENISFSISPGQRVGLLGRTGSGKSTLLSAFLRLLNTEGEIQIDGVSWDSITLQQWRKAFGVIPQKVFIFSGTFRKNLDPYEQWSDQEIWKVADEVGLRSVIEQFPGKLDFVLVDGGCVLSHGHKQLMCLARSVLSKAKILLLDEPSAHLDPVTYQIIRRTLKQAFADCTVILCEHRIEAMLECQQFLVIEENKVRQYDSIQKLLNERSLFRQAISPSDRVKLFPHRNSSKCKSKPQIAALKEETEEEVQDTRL
Among all 2,000 compounds or so, about 20 (1%) were called active. This excerpt belongs to a sample that is enriched for actives.
Give the number first and the unit second.

Q. Give the reported total CFTR intensity for "O=C(Oc1ccccc1)Oc1ccc2c(c1)oc(=O)c1ccccc12" (system: Cystic fibrosis transmembrane conductance regulator (Homo sapiens) (UniProt P13569)).
A. 140%

Q. Give the reported total CFTR intensity for "NCc1ccccc1COc1ccccc1" (system: Cystic fibrosis transmembrane conductance regulator (Homo sapiens) (UniProt P13569)).
A. 83%

Q. Give the reported total CFTR intensity for "C[C@H]1O[C@H]1P(=O)(O)O" (system: Cystic fibrosis transmembrane conductance regulator (Homo sapiens) (UniProt P13569)).
A. 108%

Q. Give the reported total CFTR intensity for "CCOc1ccccc1OCCOc1ccc(F)cc1" (system: Cystic fibrosis transmembrane conductance regulator (Homo sapiens) (UniProt P13569)).
A. 86%

Q. Give the reported total CFTR intensity for "C#C[C@]1(O)CC[C@H]2[C@@H]3CCc4cc(OC)ccc4[C@H]3CC[C@@]21C" (system: Cystic fibrosis transmembrane conductance regulator (Homo sapiens) (UniProt P13569)).
A. 141%

Q. Give the reported total CFTR intensity for CC(C)OC(=O)CC1C(=O)NCCN1C(=S)NC(=O)c1ccccc1Cl (configuration not stated) (system: Cystic fibrosis transmembrane conductance regulator (Homo sapiens) (UniProt P13569)).
A. 80%

Q. Give the reported total CFTR intensity for CC1(C)CC(c2csc(N)n2)CCO1 (configuration not stated) (system: Cystic fibrosis transmembrane conductance regulator (Homo sapiens) (UniProt P13569)).
A. 92%

Q. Give the reported total CFTR intensity for "Cn1nc(-c2ccc(Cl)cc2)nc2c(=O)n(C)c(=O)nc1-2" (system: Cystic fibrosis transmembrane conductance regulator (Homo sapiens) (UniProt P13569)).
A. 86%

Q. Give the reported total CFTR intensity for "C#C[C@]1(O)CC[C@H]2[C@@H]3CCc4cc(OC5CCCC5)ccc4[C@H]3CC[C@@]21C" (system: Cystic fibrosis transmembrane conductance regulator (Homo sapiens) (UniProt P13569)).
A. 30%

Q. Give the reported total CFTR intensity for CCOC(=O)C1C2C=CC3(CN(c4ccc(Cl)c(F)c4)C(=O)C13)O2 (configuration not stated) (system: Cystic fibrosis transmembrane conductance regulator (Homo sapiens) (UniProt P13569)).
A. 83%

Q. Give the reported total CFTR intensity for "O=C(CN1C(=O)c2ccccc2C1=O)Nc1cccc([N+](=O)[O-])c1" (system: Cystic fibrosis transmembrane conductance regulator (Homo sapiens) (UniProt P13569)).
A. 91%

Q. Give the reported total CFTR intensity for "CO[C@H]1C=CO[C@@]2(C)Oc3c(C)c(O)c4c(O)c(c(/C=N/N5CCN(C)CC5)c(O)c4c3C2=O)NC(=O)C(C)=CC=C[C@H](C)[C@H](O)[C@@H](C)[C@@H](O)[C@@H](C)[C@H](OC(C)=O)[C@@H]1C" (system: Cystic fibrosis transmembrane conductance regulator (Homo sapiens) (UniProt P13569)).
A. 137%

Q. Give the reported total CFTR intensity for "S=C(c1ccc2c(c1)OCO2)N1CCCCC1" (system: Cystic fibrosis transmembrane conductance regulator (Homo sapiens) (UniProt P13569)).
A. 85%

Q. Give the reported total CFTR intensity for "O=C(/C=C/c1ccco1)NCc1ccc2c(c1)OCO2" (system: Cystic fibrosis transmembrane conductance regulator (Homo sapiens) (UniProt P13569)).
A. 77%

Q. Give the reported total CFTR intensity for COc1ccc(C2C(C(=O)c3ccco3)=C(O)C(=O)N2CC2CCCO2)cc1 (configuration not stated) (system: Cystic fibrosis transmembrane conductance regulator (Homo sapiens) (UniProt P13569)).
A. 83%

Q. Give the reported total CFTR intensity for "CC(=O)Nc1cc(O)cc(O)c1" (system: Cystic fibrosis transmembrane conductance regulator (Homo sapiens) (UniProt P13569)).
A. 93%

Q. Give the reported total CFTR intensity for CCOc1ccc(C(=O)NC(C)C2COc3ccccc3O2)cc1 (configuration not stated) (system: Cystic fibrosis transmembrane conductance regulator (Homo sapiens) (UniProt P13569)).
A. 80%

Q. Give the reported total CFTR intensity for CCOC(=O)C1C(=O)OC2(CCOC(C)(C)C2)C1C(=O)OCC (configuration not stated) (system: Cystic fibrosis transmembrane conductance regulator (Homo sapiens) (UniProt P13569)).
A. 87%

Q. Give the reported total CFTR intensity for COc1ccc2c3c([nH]c2c1)C1(NCC3)C(=O)Nc2ccccc21 (configuration not stated) (system: Cystic fibrosis transmembrane conductance regulator (Homo sapiens) (UniProt P13569)).
A. 81%

Q. Give the reported total CFTR intensity for CSCCC(NC(C)=O)C(=O)Oc1ccc2c3c(c(=O)oc2c1)CCCC3 (configuration not stated) (system: Cystic fibrosis transmembrane conductance regulator (Homo sapiens) (UniProt P13569)).
A. 80%

Q. Give the reported total CFTR intensity for "C#C[C@]1(O)CC[C@H]2[C@@H]3CCc4cc(O)ccc4[C@H]3CC[C@@]21C" (system: Cystic fibrosis transmembrane conductance regulator (Homo sapiens) (UniProt P13569)).
A. 106%

Q. Give the reported total CFTR intensity for "O=C(O)c1ccc(OCCn2ccnc2)cc1" (system: Cystic fibrosis transmembrane conductance regulator (Homo sapiens) (UniProt P13569)).
A. 82%
